Catalogue of Gal9 response compared to reference readings, one per entry.
Test system: mCherry-GAL9 expressing U2OS cells
experiment: GAL9 recruitment assay, U2OS
Type: cell-based
measurement.conditions: EEE 0.62 µM, calculated mean from >3 independent exp.
Write the number on its own, no unit after it.

Consider the worked cases shown below.
Given the entry CCOc1nn(C2CCN(C)CC2)cc1Nc1ncc(F)c(-n2ccc3c(C#N)cccc32)n1 [EEE13] , report its measured Gal9 response compared to reference.
0.011

Same for COc1nn(C2CCN(CCCO)CC2)cc1Nc1ncc(F)c(-n2ccc3c(C#N)cccc32)n1 [EEE12]
0.017

Same for COc1nn(C2CCNCC2)cc1Nc1ncc(C(F)(F)F)c(-c2c[nH]c3ccccc23)n1 [EEE24]
0.015

Same for COc1nn(C2CCNCC2)cc1Nc1ncc(F)c(-n2ccc3c(C#N)cccc32)n1 [EEE4]
0.019

Switching to the query record.
Given the entry COc1nn(C2CCN(C)CC2)cc1Nc1ncc(C(F)(F)F)c(-n2ccc3c(C#N)cccc32)n1 [EEE16] , report its measured Gal9 response compared to reference.
0.011
